Source of measurements: PubChem BioAssay (NCI)

# Tested on: SR leukemia
# ASSAY_NOTES: NCI-60 one-dose screen, 48 h
# CONDITION_LABEL: 10 µM unless noted
The panel holds about 83,000 compounds, 20% with a hit somewhere; the sample as a whole holds those more often. The source made the active and inactive calls. Rule for the calls: active = growth percent below 10; inactive = the rest.
Classes used: active, inactive

molecule=Cn1cc(-c2nc(-c3c[nH]c4c(Cl)nccc34)cs2)c2ccccc21 category_label=inactive
molecule=COc1cccc(NC(=O)c2sc3nc(C)c(C(=O)c4ccccc4)cc3c2N)c1 category_label=inactive
molecule=COc1cc(/C=N/NC(=O)c2ccc3nc(-c4ccc(Cl)cc4)[nH]c3c2)cc(OC)c1OC category_label=inactive
molecule=Nc1ncc(-c2ccc3ncnc(N4CCc5cc(F)c(Cl)cc54)c3c2)cc1C(F)(F)F category_label=active
molecule="O=C1C2C(c3cccs3)C=C(c3ccc(Cl)cc3)N2C(=S)N1c1ccccc1 (stereo not drawn)" category_label=inactive
molecule="CSc1nc(N)c2c(n1)NC(c1ccccc1)C1CCc3ccccc3C1=N2 (stereo not drawn)" category_label=active
molecule=COc1ccc(-n2c(=O)n(-c3ccc(-c4nc5ccc(F)cc5s4)cc3)c(=O)c3cccnc32)cc1 category_label=inactive
molecule=CS(=O)(=O)Nc1cc(-c2ccc3ncnc(Nc4cccc(Cl)c4)c3c2)cnc1Cl category_label=active
molecule=O=C1CCc2c(sc3[nH]c(=S)n(-c4cc(C(F)(F)F)cc(C(F)(F)F)c4)c(=O)c23)C1 category_label=inactive
molecule=CCCNNC(=O)c1ccc(CNC(=O)/C=C/c2ccccc2)cc1 category_label=inactive
molecule=CCCCCCCCOC(=O)c1c(C)[nH]c(/C=C2\N=C(c3ccc[nH]3)C=C2OC)c1C category_label=inactive
molecule="O=C1CCC(C(=O)N/N=C/c2ccc([N+](=O)[O-])cc2)N1 (stereo not drawn)" category_label=inactive
molecule=Cc1ccc2nc(/C=C/c3ccc(N(C)C)cc3)cc(C)c2c1 category_label=inactive
molecule=CCN(CC)CCOc1ccc(/C(=C(\C)Cc2ccc(OC)cc2)c2ccc(O)cc2)cc1 category_label=active
molecule="COc1cc(C2CC(c3cccc(Nc4ccncc4)c3)=Nc3c(N)ncnc3N2)cc(OC)c1OC (stereo not drawn)" category_label=inactive
molecule=Oc1ccc(C2OCCO2)c2cccnc12 category_label=inactive
molecule="CCC(C)C(N)C(=O)NC(CC(C)C)C(=O)N1CCCC1C(=O)NC(Cc1c[nH]c2ccccc12)C(=O)NC(CCCCN)C(=O)NC(Cc1c[nH]c2ccccc12)C(=O)N1CCCC1C(=O)NC(Cc1c[nH]c2ccccc12)C(=O)NC(Cc1c[nH]c2ccccc12)C(=O)N1CCCC1C(=O)NC(Cc1c[nH]c2ccccc12)C(=O)NC(CCCNC(=N)N)C(=O)NC(CCCNC(=N)N)C(N)=O (stereo not drawn)" category_label=inactive
molecule=COc1ccc(Cn2cc(C(=O)N=Nc3c(O)[nH]c4ccc(Br)cc34)nn2)cc1 category_label=inactive

* * *

# Tested on: UO-31 renal
# ASSAY_NOTES: NCI-60 one-dose screen, 48 h (100 = growth as untreated, 0 = no growth, -100 = all killed)
# CONDITION_LABEL: 10 µM unless noted
About 83,000 compounds went through this panel and 20% of them were active in at least one assay; those are over-represented in the sample as a whole.
Measured growth of individual entries
MEASUREMENT_LABEL: growth (%)

compound=O=C(/C=C/c1cccc([N+](=O)[O-])c1)c1ccc(Nc2nc(Nc3ccc(F)cc3)nc(Nc3ccc(Cl)cc3)n2)cc1 system_tested="UO-31 renal" measurement_label=growth numeric_result=79.8
compound="CN(Cc1ccccc1)c1nc(Cl)c(C2CC(c3ccc(Cl)cc3)=NN2c2cc(Cl)cc(Cl)c2)s1 (centres undefined)" system_tested="UO-31 renal" measurement_label=growth numeric_result=96.9
compound=O=c1[nH]c(CN2CCN(c3ccccc3)CC2)nc2c(Br)cc(Br)cc12 system_tested="UO-31 renal" measurement_label=growth numeric_result=77.8
compound=CCOC(=O)c1c2c(n3ccc(NC(=O)CCN4CCCC4)cc13)C(=O)c1ncccc1C2=O system_tested="UO-31 renal" measurement_label=growth numeric_result=16.9
compound="O=C1C2C(c3cccs3)C=C(c3ccc(Cl)cc3)N2C(=S)N1c1ccccc1 (centres undefined)" system_tested="UO-31 renal" measurement_label=growth numeric_result=71.4
compound=COc1cc2ncnc(Nc3ccc(S(=O)(=O)Nc4cc(C)on4)cc3)c2cc1OCCCN1CCOCC1 system_tested="UO-31 renal" measurement_label=growth numeric_result=88.1
compound=CCN1CCN(CCOc2ccc(CNc3ccc4nc(CCC5CCCCC5)[nH]c4c3)cc2)CC1 system_tested="UO-31 renal" measurement_label=growth numeric_result=-24.9
compound=Cc1c2ccncc2c(C)c2c1c1ccccc1n2CCCCCC(=O)O system_tested="UO-31 renal" measurement_label=growth numeric_result=56.7
compound=C#CCOc1cccc(-c2ncnc3cc(NC(=O)CCl)ccc23)c1 system_tested="UO-31 renal" measurement_label=growth numeric_result=-93.7
